System: hypoxemia model animals
Experiment: Effect on partial pressure of gases in arterial blood, injection system, Method B (acetic acid-induced hypoxemia)
Type: in vivo, Male Wister strain rats
Conditions: 2.0% acetic acid intratracheal 0.6 ml/kg, PaO2 60-70 mmHg, intravenous continuous 0.1 mg/kg/min, after minus before administration
measurement-kind: Activity for Decreasing PaCO2 ΔPaCO2

Fill in the recorded Activity for Decreasing PaCO2 ΔPaCO2 for this compound, with hypoxemia model animals as test system: C=CCNc1nc(NCCc2ccccc2)c2ccn(C)c2n1
-19.2 mmHg

// lookup Activity for Decreasing PaCO2 ΔPaCO2 | system=hypoxemia model animals | key= C=CCNc1nc(N(C)C)c2ccn(C)c2n1
+1.1 mmHg

Param readout = Activity for Decreasing PaCO2 ΔPaCO2; param system = hypoxemia model animals; param query = C=CCNc1nc(N(C)CCc2ccccc2)c2ccn(C)c2n1 ; response: value
-6.6 mmHg

So what Activity for Decreasing PaCO2 ΔPaCO2 did C=CCNc1nc(NC2CCCCC2)c2ccn(C)c2n1 get with hypoxemia model animals?
-18.6 mmHg

Provide value of Activity for Decreasing PaCO2 ΔPaCO2 for this record tested with hypoxemia model animals: C=CCNc1nc(N2CCOCC2)c2ccn(C)c2n1
-4.0 mmHg

Entry C=CCNc1nc(NC(C)c2ccccc2)c2ccn(C)c2n1 (racemic) , system hypoxemia model animals: what Activity for Decreasing PaCO2 ΔPaCO2 was measured?
-9.1 mmHg

Record C=CCNc1nc(NC2CCCc3ccccc32)c2ccn(C)c2n1 (stereo not shown) : what is its Activity for Decreasing PaCO2 ΔPaCO2 with hypoxemia model animals?
-17.2 mmHg

Measured values drawn from patent EP0514540B1 for this set.
